# EXPERIMENTAL_DETAILS: Highest frequency of acute liver toxicity observed during clinical trials, expressed as a percentage. [column '% AIGUE' in source]
# ASSAY_CONTEXT: human
Where a SMILES comes first, the peptide text is derived from it. Bridges are numbered along the chain shown (N, C = ends). [ ]: non-standard residue; d: D form. The star is where a group is joined. Threoninol(2S,3R) = C[C@@H](O)[C@H](CO)N*
As shown below, each of these compounds has a reported Hepatotoxicity (acute) value.
Reply numerically in %, unit not repeated.

[[record]]
compound = "C[C@@H](O)[C@H](CO)NC(=O)[C@@H]1CSSC[C@H](NC(=O)[C@H](N)Cc2ccccc2)C(=O)N[C@@H](Cc2ccccc2)C(=O)N[C@H](Cc2c[nH]c3ccccc23)C(=O)N[C@@H](CCCCN)C(=O)N[C@@H]([C@@H](C)O)C(=O)N1 (H-[dF]CF[dW]KTC-{Threoninol(2S,3R)}; disulfide 2-7)"
measurement_type = "Hepatotoxicity (acute)"
reported_value = 0

[[record]]
compound = "CC1=C(C(=O)O)N2C(=O)[C@@H](NC(=O)[C@H](N)C3=CCC=CC3)[C@H]2SC1"
measurement_type = "Hepatotoxicity (acute)"
reported_value = 0


Now turn to the next compound.
Entry NN [HYDRAZINE] ; Hepatotoxicity (acute) = 0

The values you see were collected from ChEMBL document CHEMBL3137667.
